TARGET_OR_SYSTEM: human isoforms of GABAA (α3ß2γ2) receptors (Homo sapiens, UniProt P18507+P34903)
Construct: expressed in transfected cells
Sequence (P34903 29-492): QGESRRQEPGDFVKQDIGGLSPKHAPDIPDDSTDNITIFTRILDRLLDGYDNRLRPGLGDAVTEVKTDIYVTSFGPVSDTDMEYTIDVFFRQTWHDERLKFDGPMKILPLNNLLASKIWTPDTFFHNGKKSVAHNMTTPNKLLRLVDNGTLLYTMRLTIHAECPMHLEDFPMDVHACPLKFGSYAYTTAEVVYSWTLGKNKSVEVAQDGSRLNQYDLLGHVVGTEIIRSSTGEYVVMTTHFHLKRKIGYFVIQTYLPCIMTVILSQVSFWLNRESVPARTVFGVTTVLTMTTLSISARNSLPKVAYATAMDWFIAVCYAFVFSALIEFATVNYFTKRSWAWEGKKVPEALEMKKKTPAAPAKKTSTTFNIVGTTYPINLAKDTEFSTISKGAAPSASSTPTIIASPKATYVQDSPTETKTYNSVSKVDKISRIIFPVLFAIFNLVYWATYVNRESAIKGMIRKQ
Sequence (P47870 25-512 partner limits assumed): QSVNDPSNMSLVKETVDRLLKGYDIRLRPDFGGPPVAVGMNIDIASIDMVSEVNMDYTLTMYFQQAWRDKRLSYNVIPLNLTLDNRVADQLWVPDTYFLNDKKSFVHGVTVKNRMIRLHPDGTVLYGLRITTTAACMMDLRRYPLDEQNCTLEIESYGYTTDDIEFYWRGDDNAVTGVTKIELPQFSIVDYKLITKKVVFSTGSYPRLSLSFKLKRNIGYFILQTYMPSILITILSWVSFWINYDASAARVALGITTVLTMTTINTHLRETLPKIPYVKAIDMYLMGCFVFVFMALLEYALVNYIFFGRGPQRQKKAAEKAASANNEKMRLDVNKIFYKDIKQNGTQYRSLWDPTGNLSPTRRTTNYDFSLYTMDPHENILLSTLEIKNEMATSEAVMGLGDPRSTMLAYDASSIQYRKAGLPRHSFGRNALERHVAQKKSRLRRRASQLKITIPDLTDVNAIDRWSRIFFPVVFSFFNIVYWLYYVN
Sequence (P18507 40-475): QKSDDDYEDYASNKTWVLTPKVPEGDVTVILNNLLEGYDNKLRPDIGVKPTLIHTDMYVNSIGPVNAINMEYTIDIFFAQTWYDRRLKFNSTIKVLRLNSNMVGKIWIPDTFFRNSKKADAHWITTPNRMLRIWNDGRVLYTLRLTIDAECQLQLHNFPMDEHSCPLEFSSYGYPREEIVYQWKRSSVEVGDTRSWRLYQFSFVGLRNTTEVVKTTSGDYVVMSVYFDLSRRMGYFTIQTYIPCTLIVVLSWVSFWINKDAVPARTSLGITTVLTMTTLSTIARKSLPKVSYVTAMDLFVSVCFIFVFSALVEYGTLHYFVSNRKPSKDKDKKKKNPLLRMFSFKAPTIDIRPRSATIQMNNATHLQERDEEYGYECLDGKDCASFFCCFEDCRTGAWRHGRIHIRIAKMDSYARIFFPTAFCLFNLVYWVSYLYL
PROTOCOL_NOTES: Potentiation of GABA-evoked currents at GABAA (α3β2γ2) receptors, automated patch-clamp (QPatch), Example B1
Type: cell-based
# maps each entry to its EC50

COMPOUND	EC50
COCCOCCOCCOCCNC(=O)c1cn2c(n1)CN=C(c1ccccc1F)c1cc(Cl)ccc1-2 [Compound 211]	50 to 100 nM

Quick check: EC50 of O=C(O)c1nc2n(c1C1CC1)-c1ccc(Cl)cc1C(c1ccccc1F)=NC2 [Compound 212] ?
> 100 nM

And O=C(O)c1cn2c(n1)CN=C(c1ccccc1F)c1cc(Cl)c(F)cc1-2 [Compound 201] ?
< 50 nM

Would you kindly repeat that for O=C(O)c1cn2c(n1)C[N+]([O-])=C(c1ccccc1F)c1cc(Cl)ccc1-2 [Compound 236] ?
> 100 nM

Can you check O=C(O)c1cn2c(n1)CN=C(c1ccccc1Br)c1cc(Cl)ccc1-2 [Compound 206] next?
< 50 nM

Now the compound O=C(O)c1cn2c(n1)CN=C(c1ccccc1F)c1cc(F)ccc1-2 [Compound 221]
50 to 100 nM

These entries and their values trace back to patent US20260042763A1.
